Test: LNP size and PDI by dynamic light scattering
Assay type: physicochemical
Conditions: mRNA LNP, cationic lipid/DSPC/cholesterol/PEG-lipid 50:10:38.5:1.5
Method: In summary, the cationic lipid described herein, DSPC, cholesterol, and PEG-lipid were dissolved in ethanol at a molar ratio of 50:10:38.5:1.5 and diluted in 10 mM to 50 mM citrate buffer at pH 4 with mRNA. […] The size of lipid nanoparticles was measured by dynamic light scattering using a Malvern Zetasizer Nano ZS (Malvern, UK) with a 90° scattering detection mode. […]
measure.name: Size (nm)

1. CCCCCCCCC(C(=O)NCCCCCCCCCC(=O)OCC1CC=CCC1)N(CCCN1CCCC1)C(=O)CCCCCCCCCC(=O)OC(CCCCCC)CCCCCC (stereo not drawn) [Compound A10]	61.16
2. CCCCCCCCNC(=O)C(CCCCCCCC)N(CCN(CCO)CCO)C(=O)CCCCCCC(=O)OC(CCCCCCCC)CCCCCCCC (stereo not drawn) [Compound B32]	119.93
3. CCCCCCCCNC(=O)C(CCCCCCC)N(CCCN(C)C)C(=O)CCCCCCC(=O)OC(CCCCCCCC)CCCCCCCC (stereo not drawn) [Compound A30]	86.87
